kinact/KI values, listed per item
target: CDK7/cyclinH/MAT1 trimeric complex (Homo sapiens); experiment: In vitro CDK7 assay, potency of irreversible covalent inhibitors (kinact/KI), coupled PK/LDH ADP readout at 340 nm; settings: read-out: CDK7 (20 nM enz.) (kinact/KI, M^−1*s^−1), 20 nM enzyme
Remember to put the unit after the number in your answer.

Examples with their reported kinact/KI follow.
C=CC(=O)N1CC[C@@H](N2CC(c3cc(C)c4c(c3)Nc3nccc(-c5cnn(C)c5)c3CO4)C2)[C@@H](F)C1 (mixture of isomers) [Compound 201] | 514 M⁻¹ s⁻¹
C=CC(=O)N1CCC(N2CCC(c3cc4c(c(C)n3)OCc3c(N5CCOCC5)ccnc3N4)CC2)CC1 [compound 324] | 2120 M⁻¹ s⁻¹
C=CC(=O)N1CC(N2CCO[C@@H](c3cc(C)c4c(c3)Nc3nccc(C5CCOCC5)c3CO4)CC2)C1 (single isomer, unassigned) [Compound 221] | 152 M⁻¹ s⁻¹
C=CC(=O)N1CC(N2CC(c3cc(C)c4c(c3)Nc3nccc(C5CCOCC5)c3[C@H](C)O4)C2)C1 (single isomer, unassigned) [Compound 252] | 12 M⁻¹ s⁻¹
C=CC(=O)N1CC(N2CCC(O)(c3cc(C)c4c(c3)Nc3nccc(C5CCOCC5)c3CO4)CC2)C1 [Compound 159] | 794 M⁻¹ s⁻¹
CC#CC(=O)N1CC[C@@H](N2CC(c3cc4c(c(C5CC5)n3)O[C@H](C)c3c(N5CCOCC5)ccnc3N4)C2)C1 (single isomer, unassigned) [Compound 464] | 5.64 M⁻¹ s⁻¹
C=C(C(=O)N1CC(N2CCC(c3cc4c(c(C)n3)O[C@@H](C)c3c(N5CCOCC5)ccnc3N4)CC2)C1)n1cccn1 (single isomer, unassigned) [Compound 523] | 398 M⁻¹ s⁻¹
C=CC(=O)N1CC[C@@H](N2CCC(c3cc4c(c(C)n3)OCc3c(N5CCOCC5)ccnc3N4)CC2)C1 (single isomer, unassigned) [Compound 184] | 1350 M⁻¹ s⁻¹
C=CC(=O)N1CC(N2CCC(c3ccc4c(c3)Nc3nccc(N5CCOC[C@@H]5C)c3CO4)CC2)C1 [Compound 63] | 885 M⁻¹ s⁻¹
C=CC(=O)N1CC(N2CC(c3cc4c(c(C)n3)O[C@@H](C)c3c(C5CCOCC5)ccnc3N4)C2)C1 (single isomer, unassigned) [Compound 480] | 2.97 M⁻¹ s⁻¹

// query Query: kinact/KI; subject: C=CC(=O)N1CC(N2CCC(c3ccc4c(c3)Nc3nccc(-c5cnn(C)c5)c3C(C)(C)O4)CC2)C1 [Compound 152]
// result 1940 M⁻¹ s⁻¹

// query Follow-up entry: CC#CC(=O)N1CC(N2CCC(c3ccc4c(c3)Nc3nccc(C5CCOCC5)c3CO4)CC2)C1 [Compound 269]
// result 417 M⁻¹ s⁻¹

// query Further, for C=CC(=O)N1CC[C@@H](N2CC(c3cc(C)c4c(c3)Nc3nccc(N5CCOCC5)c3[C@H](C)O4)C2)C1 (single isomer, unassigned) [Compound 227] ?
// result 22.7 M⁻¹ s⁻¹

// query Now the same for C=CC(=O)N1CC(N2CC[C@H](c3ccc4c(c3)Nc3nccc(N5CCOCC5)c3CO4)C(C)(C)C2)C1 (single isomer, unassigned) [Compound 67]
// result 752 M⁻¹ s⁻¹

// query Next: C=CC(=O)N1CCC(n2ccc(-c3cc4c(c(C)n3)OCc3c(N5CCOCC5)ccnc3N4)cc2=O)CC1 [compound 419]
// result 144 M⁻¹ s⁻¹

// query Could you do the same for Cc1nc(C2CCN([C@H]3CCN(C(=O)/C=C/C(=O)O)C3)CC2)cc2c1OCc1c(-c3cnn(C)c3)ccnc1N2 (single isomer, unassigned) [Compound 332] , please?
// result 4.51 M⁻¹ s⁻¹

// query Next up: C=CC(=O)N1CC(N2CCC(c3cc4c(cc3CO)OCc3c(N5CCOCC5)ccnc3N4)CC2)C1 [Compound 139]
// result 131 M⁻¹ s⁻¹

// query What would you report for C=CC(=O)N1CCC(N2CC(c3cc4c(c(C5CC5)n3)O[C@@H](C)c3c(N5CCOCC5)ccnc3N4)C2)CC1 (single isomer, unassigned) [Compound 375] ?
// result 12.2 M⁻¹ s⁻¹

// query Let us now turn to C=CC(=O)N1CC[C@H](N2CC(c3cc(C)c4c(c3)Nc3nccc(C5CCOCC5)c3CO4)C2)[C@H](F)C1 (mixture of isomers) [Compound 200]
// result 812 M⁻¹ s⁻¹

// query // repeat for C=CC(=O)N1CC(N2CCC(c3cc4c(c(C5CC5)n3)OCc3c(N5CCOCC5)ccnc3N4)CC2)C1 [Compound 272] and report
// result 1010 M⁻¹ s⁻¹

// query Next entry: C=CC(=O)N1CC[C@@H](N2CC(c3cc(C)c4c(c3)Nc3nccc(N5CCOCC5)c3CO4)C2)[C@@H](F)C1 (mixture of isomers) [Compound 202]
// result 1490 M⁻¹ s⁻¹

// query What do we get for C=CC(=O)N1CC[C@H](N2CCC(c3cc4c(c(C)n3)OCc3c(N5CCOCC5)ccnc3N4)CC2)C1 (single isomer, unassigned) [Compound 283] ?
// result 381 M⁻¹ s⁻¹

// query Moving on to CC#CC(=O)N1CC(N2CCC(c3cc4c(c(C)n3)OCc3c(N5CCOCC5)ccnc3N4)CC2)C1 [Compound 279]
// result 127 M⁻¹ s⁻¹

// query Repeat with C=CC(=O)N1CC[C@@H](N2CC(c3cc4c(c(C5CC5)n3)O[C@@H](C)c3c(N5CCOCC5)ccnc3N4)C2)C1 (single isomer, unassigned) [Compound 467]
// result 2630 M⁻¹ s⁻¹

====

molecular target: CDK7/cyclinH/MAT1 trimeric complex (Homo sapiens, UniProt P50613); assay: In vitro CDK7 assay, potency of irreversible covalent inhibitors (kinact/KI), coupled PK/LDH ADP readout at 340 nm; settings: read-out: CDK7 (20 nM enz.) (kinact, s^−1), 20 nM enzyme
Sequence (P50613 whole entry): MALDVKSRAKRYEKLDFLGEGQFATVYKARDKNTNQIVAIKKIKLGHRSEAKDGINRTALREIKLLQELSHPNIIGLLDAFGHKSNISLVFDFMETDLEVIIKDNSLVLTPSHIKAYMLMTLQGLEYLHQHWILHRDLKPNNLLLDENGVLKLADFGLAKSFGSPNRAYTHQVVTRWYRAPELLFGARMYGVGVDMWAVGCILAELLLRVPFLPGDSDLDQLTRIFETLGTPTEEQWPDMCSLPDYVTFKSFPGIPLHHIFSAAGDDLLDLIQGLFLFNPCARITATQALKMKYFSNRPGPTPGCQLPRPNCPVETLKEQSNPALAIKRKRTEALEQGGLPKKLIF
Sequence (P51946 whole entry partner): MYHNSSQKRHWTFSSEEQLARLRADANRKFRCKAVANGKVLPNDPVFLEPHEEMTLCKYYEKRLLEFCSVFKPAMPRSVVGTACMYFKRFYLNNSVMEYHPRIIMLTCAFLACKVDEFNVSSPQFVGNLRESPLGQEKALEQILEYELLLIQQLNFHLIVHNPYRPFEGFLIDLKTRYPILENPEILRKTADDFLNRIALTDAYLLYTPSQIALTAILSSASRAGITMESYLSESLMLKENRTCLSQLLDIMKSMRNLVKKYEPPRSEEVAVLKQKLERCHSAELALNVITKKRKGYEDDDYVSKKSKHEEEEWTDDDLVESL
Sequence (P51948 whole entry partner): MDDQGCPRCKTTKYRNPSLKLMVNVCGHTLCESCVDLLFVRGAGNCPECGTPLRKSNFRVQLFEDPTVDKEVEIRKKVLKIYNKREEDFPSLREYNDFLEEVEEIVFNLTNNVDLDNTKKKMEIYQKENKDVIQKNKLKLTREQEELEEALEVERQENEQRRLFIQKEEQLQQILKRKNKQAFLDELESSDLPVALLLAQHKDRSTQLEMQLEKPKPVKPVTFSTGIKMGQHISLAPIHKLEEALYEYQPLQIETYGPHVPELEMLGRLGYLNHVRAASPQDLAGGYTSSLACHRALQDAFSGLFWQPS
Reported kinact values for a set of compounds
Report the value in s⁻¹ with no unit label.

// query # kinact lookup, item C=CC(=O)N1CCC(N2CCC(c3cc4c(c(C)n3)O[C@@H](C)c3c(N5CCOCC5)ccnc3N4)CC2)CC1 (single isomer, unassigned) [Compound 411]
// result 0.000106

// query Next entry: C=C(C(=O)N1CC(N2CCC(c3cc4c(c(C)n3)O[C@@H](C)c3c(N5CCOCC5)ccnc3N4)CC2)C1)n1cccn1 (single isomer, unassigned) [Compound 523]
// result 1.97e-05

// query How about C=CC(=O)N1CC(N2CC[C@H](c3ccc4c(c3)Nc3nccc(N5CCOCC5)c3CO4)[C@@H](F)C2)C1 (mixture of isomers) [Compound 226] ?
// result 6.76e-05

// query Now consider C=CC(=O)N1CC2(CC(c3cc(F)c4c(c3)Nc3nccc(N5CCOCC5)c3CO4)C2)C1 [Compound 162] .
// result 4.88e-05

// query CC#CC(=O)N1CC(N2CCC(c3cc4c(c(C)n3)OCc3c(N5CCOCC5)ccnc3N4)N(C)CC2)C1 (stereo not drawn) [Compound 373] , same question.
// result 1.66e-05

// query Follow-up item: CC#CC(=O)N1CC(N2CCC(c3cc4c(c(C)n3)OCc3c(C5CCOCC5)ccnc3N4)CC2)C1 [Compound 410]
// result 6.11e-05

// query Query CC#CC(=O)N1CC(N2CC(c3cc4c(c(CCC)n3)OCc3c(N5CCOCC5)ccnc3N4)C2)C1 [Compound 368] next
// result 4.43e-05

// query Same for C=CC(=O)N1CC[C@H](N2CC(c3cc4c(c(C5CC5)n3)OCc3c(N5CCOCC5)ccnc3N4)C2)C1 (single isomer, unassigned) [Compound 421]
// result 7.59e-05

// query # iterate: C=CC(=O)N1CC[C@H](N2CC(c3cc4c(c(C5CC5)n3)OCc3c(-c5cnn(C)c5)ccnc3N4)C2)C1 (single isomer, unassigned) [Compound 287]
// result 0.000117

====

target: CDK7/cyclinH/MAT1 trimeric complex (Homo sapiens, UniProt P50613); test: In vitro CDK7 assay, potency of irreversible covalent inhibitors (kinact/KI), coupled PK/LDH ADP readout at 340 nm; details: CDK7 (20 nM enz.) (KI, μM), 20 nM enzyme
Outcome measure: Ki

C=CC(=O)N1CC(N2CCC(c3ccc4c(c3)Nc3nccc(N5CCOC[C@@H]5C)c3CO4)CC2)C1 | 0.0857 µM
CC#CC(=O)N1CC(N2CC[C@@H](c3cc4c(c(C)n3)OCc3c(N5CCOCC5)ccnc3N4)C2)C1 (single isomer, unassigned) | 0.399 µM
C=CC(=O)N1CC(N2CC[C@H](c3cc4c(c(C)n3)OCc3c(N5CCOCC5)ccnc3N4)N(C)CC2)C1 (single isomer, unassigned) | 0.0493 µM
C=CC(=O)N1CC[C@H](N2CC(c3cc4c(c(C5CC5)n3)OCc3c(-c5cnn(C)c5)ccnc3N4)C2)C1 (single isomer, unassigned) | 0.188 µM
CC#CC(=O)N1CC(N2CCC(c3cc4c(c(C)n3)OCc3c(C5CCOCC5)ccnc3N4)CC2)C1 | 0.203 µM

// query Given C=CC(=O)N1CC[C@@H](N2CC(c3cc(C)c4c(c3)Nc3nccc(N5CCOCC5)c3[C@H](C)O4)C2)C1 (single isomer, unassigned) , state its recorded Ki.
// result 3.01 µM
